Experiment: Antagonist activity at human P2Y12 receptor assessed as inhibition of ADP-induced platelet-rich plasma aggregation by turbidimetric method
Classes by IC50: A (below 6 µM), B (6 µM to below 8 µM), C (8 µM or more)

1) CCOC(=O)N1CCN(C(=O)[C@H](CCC(=O)O)NC(=O)c2cc(N(CC)CC)cc(-c3ccccc3)n2)CC1 | C
2) CCCCCOC(=O)N1CCN(C(=O)[C@H](CCC(=O)O)NC(=O)c2cc(N3CCC(COC)CC3)cc(-c3ccccc3)n2)CC1 | A
3) CCOC(=O)N1CCN(C(=O)[C@H](CCC(=O)O)NC(=O)c2cc(OCCCN)cc(-c3ccccc3)n2)CC1 | A
4) O=C(O)CC[C@H](NC(=O)c1cc(N2CCC(O)CC2)cc(-c2ccccc2)n1)C(=O)N1CCN(C(=O)OCCC2CCCC2)CC1 | C
5) CCOC(=O)N1CCN(C(=O)[C@H](CCC(=O)O)NC(=O)c2cc(N3CCC(O)CC3)cc(-c3ccccc3)n2)CC1 | C
6) CCCCOC(=O)N1CCN(C(=O)[C@H](CCC(=O)O)NC(=O)c2cccc(-c3ccccc3)n2)CC1 | C
7) CCOC(=O)N1CCN(C(=O)[C@H](CCC(=O)O)NC(=O)c2cc(NCC3CCNCC3)cc(-c3ccccc3)n2)CC1 | C
8) CN(CCS(C)(=O)=O)c1cc(C(=O)N[C@@H](CCC(=O)O)C(=O)N2CCN(C(=O)OCCC3CCCC3)CC2)nc(-c2ccccc2)c1 | C
9) CCOC(=O)N1CCN(C(=O)[C@H](CCC(=O)O)NC(=O)c2cc(OC(CC)C(=O)N(CC)CC)cc(-c3ccccc3)n2)CC1 (some centres undefined) | A
10) CCCCOC(=O)N1CCN(C(=O)[C@H](CCC(=O)O)NC(=O)c2cc(OCCOC)cc(-c3ccccc3)n2)CC1 | A
11) CCCCCCOC(=O)N1CCN(C(=O)[C@H](CCC(=O)O)NC(=O)c2cc(N3CCC(O)CC3)cc(-c3ccccc3)n2)CC1 | B
12) CCCCCCOC(=O)N1CCN(C(=O)[C@H](CCC(=O)O)NC(=O)c2cc(N3CCC(COC)CC3)cc(-c3ccccc3)n2)CC1 | B
